# Tested on: RARb:RXRa (NR concentration 270 nM, RXRa partner concentration 90 nM)
# Assay method text: PBM binding z-score (relative to random genomic background probes); higher = stronger binding; sequences stand for … in GC…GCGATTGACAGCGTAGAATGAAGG
The following sequences are listed with their measured PBM binding z-score values.

Examples with answers:
1. CCTACTGGGACATTCAGAGGTCATTGATCATATG : 3.11
2. TCTTGTAGATCAATAGAGGTAAAGAAAGTGCGCT : -0.0126
3. TCGAGTAGGTTACTAATGGGGCATTCAGCTTTCT : 0.494

Proceeding to the next sequence to report its PBM binding z-score.
State recorded PBM binding z-score with RARb:RXRa (NR concentration 270 nM, RXRa partner concentration 90 nM), entry `ATCGAAAGGTCGACGAGGTGAGTAGACACCGTTT` , no comment.
3.89

###

The following sequences are listed with their measured PBM binding z-score values.
# Test system: LXRa:RXRa (NR concentration 270 nM, RXRa partner concentration 90 nM)
# Assay method text: PBM binding z-score (relative to random genomic background probes); higher = stronger binding; sequences stand for … in GC…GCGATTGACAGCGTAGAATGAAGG
Answer using only a numeral; do not append any unit.

Examples with answers:
1. GCTGCTAGGTCAACTGATGGTCAGCTATAGCTCG : 3.25
2. TCATATAGGTAATACAGGTTAAAGTCGGCATCTA : 2.72
3. TGAATGAGGTTAGAAGATCAGGGAACGTTGCAAA : 0.337
4. CCTGATAGGTCATGGTCAGCTAATCTACAGTATG : 4.19
5. TCACATAGGTAATACAGGTGAAAGTCGGCATCTA : 0.976

Tell me PBM binding z-score reported for `CCTTACGGGGCACGAGGTTATAGCACGACGAGCG`
0.879

Tell me PBM binding z-score reported for `ATCTCTAGGTATCCAAGTTCAGTGAATGCCGAAC`
0.879

Tell me PBM binding z-score reported for `GCTGCTAGGTCATCTGATGGTCAGCTAAAGCTCG`
3.02

Tell me PBM binding z-score reported for `TCGAGTAGGTTAGTCGGTGCATTCAGCCAACATA`
-0.428

Tell me PBM binding z-score reported for `CCGACTGTGGCAGAAAGGTTACCATACCATCCGG`
0.528

Tell me PBM binding z-score reported for `GAGACAGGGTCAGCTAGAGGCCAGAGTATGGAAA`
2.53

Tell me PBM binding z-score reported for `TCATATAGGTACAAGGTGAAAGTCGGTGTGGTAA`
1.08

Tell me PBM binding z-score reported for `TCTATTAGTTGAAGGGCAACCTACGAGTCCGTTT`
0.87

Tell me PBM binding z-score reported for `CGAACGAGGGCTTGAGTTGATAGCAAATGCCGAT`
-0.589

###

The following sequences are listed with their measured PBM binding z-score values.
# Tested on: RXRa DBDmut IVT, anti-RXR (DBD mutation: RXRa K156A/R161A, NR concentration 90 nM)
# Assay method text: PBM binding z-score (relative to random genomic background probes); higher = stronger binding; sequences stand for … in GC…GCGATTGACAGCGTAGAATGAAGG

Examples with answers:
1) CGAACTAGGTCAGAACAGGGCAGTGAAGGATGAT : 0.463
2) CGAACTAGGTCAGAATAGGACAGTGAAGGATGAT : 0.702

Tell me PBM binding z-score reported for `AGAACGAGGGCACGCTGAGTTAATAGCAGAGTAG`
1.8

###

# System: RARb homodimer (NR concentration 270 nM)
# Assay method text: PBM binding z-score (relative to random genomic background probes); higher = stronger binding; sequences stand for … in GC…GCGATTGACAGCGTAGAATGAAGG
Measurement kind: PBM binding z-score
Answer using only a numeral; do not append any unit.

Tell me PBM binding z-score reported for `ATCTCTAGGTAACCAAGTACAGTGAATGCCGAAC`
0.221

Tell me PBM binding z-score reported for `CCTGGGAGGACAACAGGAGGTCAGAGCTGCCAGA`
3.72

Tell me PBM binding z-score reported for `TCGAGTAGGTTAGGGGCACTCAGAATGGCGTCGA`
0.798

Tell me PBM binding z-score reported for `GATACAGGGTCCAGGCCAGAGTACGCGTATTGAT`
0.265

###

# System: RARg homodimer (NR concentration 270 nM)
# Assay method text: PBM binding z-score (relative to random genomic background probes); higher = stronger binding; sequences stand for … in GC…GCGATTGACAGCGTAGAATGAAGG
Returns one of TRUE or FALSE; TRUE when PBM binding z-score is >= 2.

// below: answered sequences
1) TCTGCTAAGTCAGTTGGTCAGCTAACGAGCTGCC : FALSE
2) TGAATGAGGTTAAAGATCAGGGACCGTGGCGTCG : FALSE
3) GCATATAGGTAATACATGGTGAAAGTCCGATTGT : FALSE

Has `TCTGCTAGGTCAGTTGGTCGGCTAACGAGCTGCC` a recorded PBM binding z-score greater than or equal to 2?
TRUE

Has `TAGCCTAAGTCATTGGGCCAGTATAGTACGCATC` a recorded PBM binding z-score greater than or equal to 2?
FALSE

Has `GCTTACGGGTCAATGGTTATAGCATGAATAGAAT` a recorded PBM binding z-score greater than or equal to 2?
TRUE

Has `ACTCGGAGGACACAGGTCAGAGCTACGCCAGTGA` a recorded PBM binding z-score greater than or equal to 2?
TRUE

Has `ACTATTAGTTGAGACGAGAGCAACCGATAGGTTG` a recorded PBM binding z-score greater than or equal to 2?
FALSE

Has `TGATTGAGGTTAAAGATCAGGGAACGTGGCGTCG` a recorded PBM binding z-score greater than or equal to 2?
FALSE

Has `CATTACGGGTCACTGACAGGTTATAGCATTTGGA` a recorded PBM binding z-score greater than or equal to 2?
TRUE

Has `TAGCCTAGGTCAGATCCGGCCAGTATACGCTATA` a recorded PBM binding z-score greater than or equal to 2?
TRUE

###

The following sequences are listed with their measured PBM binding z-score values.
# System: PPARa:RXRa (NR concentration 270 nM, RXRa partner concentration 90 nM)
# Assay method text: PBM binding z-score (relative to random genomic background probes); higher = stronger binding; sequences stand for … in GC…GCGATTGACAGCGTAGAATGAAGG
Answer using only a numeral; do not append any unit.

1. TCTTGTAGATCAGCAGGTTAAGACAGCTGGCCAA : 0.79
2. TCTTGTAGACCAAGCAGGTTAAGAAAGCCTGAGT : 0.881
3. ATCTCAAGGTAAAGATAGTTCAGTGAATGCAAAT : 0.546

Proceeding to the next sequence to report its PBM binding z-score.
Tell me PBM binding z-score reported for `GGTAGTTGGTCAGTAAAAGGTCACACACCGGTCG`
4.34

###

# System: PXR:RXRa (NR concentration 270 nM, RXRa partner concentration 90 nM)
# Assay method text: PBM binding z-score (relative to random genomic background probes); higher = stronger binding; sequences stand for … in GC…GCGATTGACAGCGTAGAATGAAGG
The following sequences are listed with their measured PBM binding z-score values.
Answer using only a numeral; do not append any unit.

Examples with answers:
1. CCTAGCAGGCCAATCTGGGTCACGCAAGGCTTGA : 1.48
2. ATCGAAAGGTCGTGAGGTCAGTATACAGAAAGGC : 5.08
3. TCTTGTAGAACAAAGGTTAAGAAAGCCGAAGCCT : 1.31
4. TCTAGCAGGCCAGAGGGTCACTGAAGAGGTACGG : 1.53
5. GCTGCTAGCTCAGGTTGGTCAGCTAACGGGTACG : -0.81
6. CCTACTGGGCCAAGGTCATTTATCAGTCAAAGCA : 3.22

Tell me PBM binding z-score reported for `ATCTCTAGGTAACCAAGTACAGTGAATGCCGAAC`
0.0867

Tell me PBM binding z-score reported for `CATACAGGGTCAGCTAGGCCGGAGTAGGGACGGC`
1.76

Tell me PBM binding z-score reported for `GGAACGAGGGCAAACTTGATAGCATCTGTCGACG`
0.618

Tell me PBM binding z-score reported for `TGAAGGAGGTTATAAGATCAGGGAACGTTGCAAA`
0.292

Tell me PBM binding z-score reported for `ACTTACGGGTCAGCGAGGTTATAGCACGCGTATA`
4.18

Tell me PBM binding z-score reported for `ATCTCTAGGTAAAGTTCAGTGCAAGATCGATAGA`
2.32

Tell me PBM binding z-score reported for `CCTAGTTGGCCAGGAGGTCACACACCGGATATGA`
4.27

Tell me PBM binding z-score reported for `TCTATTAGTTGATTAGGGCAACCCAAACAGCGGA`
0.65

Tell me PBM binding z-score reported for `ATCGAAAGGTCGAAGGTGATTATACCCACCCGAA`
2.89

Tell me PBM binding z-score reported for `TCGAGTAGGTTACCAATGGCGCATTCAGCTTTCT`
0.00763
